Compiled record: Ki values for Carbonic anhydrase 1 (Homo sapiens, UniProt P00915) across several sources.
# unit: µM | format: bare number

Examples from the recorded data:
> print(dat)
                         compound.structure  result.number
1  C[C@H](CCC(=O)Nc1cc(Cl)c(S(N)(=O)=O)cc1S(N)(=O)=O)[C@H]1CC[C@H]2[C@@H]3CC[C@@H]4C[C@H](O)CC[C@]4(C)[C@H]3CC[C@]12C            0.2
2  CC(=O)/C(=N\Nc1cccc([N+](=O)[O-])c1)C(=O)Nc1ccc(S(N)(=O)=O)cc1          0.751
3  CN(C)c1nc(-c2ccc(S(N)(=O)=O)cc2)cn2c(=O)n(-c3ccccc3)nc12           2.09
4  NS(=O)(=O)c1cc(S(N)(=O)=O)c(NC(=O)CN(CCOCCOCCN(CC(=O)O)CC(=O)O)CC(=O)O)c(Cl)c1Cl           0.05
5  NS(=O)(=O)c1ccccc1NC(=O)CN(CCOCCOCCN(CC(=O)O)CC(=O)Nc1ccccc1S(N)(=O)=O)CC(=O)O            5.6
6              CC(=O)Nc1ccc(S(N)(=O)=O)cc1F            4.2
7           COc1ccc(Cc2ccc(OC)c(OC)c2)cc1OC            537
8  NS(=O)(=O)c1ccc(NCc2cc(=O)oc3cc(Cl)ccc23)c(Cl)c1           0.52
9  CCc1cc(-c2ccccc2)cc(CC)[n+]1CC(=O)Nc1ccc(S(=O)(=O)Nc2nnc(S(N)(=O)=O)s2)cc1          0.012

Proceed to the following item.
Prompt: Look up Ki of NS(=O)(=O)c1ccc(NC(=O)CNCCNCC(=O)O)c(Cl)c1 and report it.
Response: 0.9

----------
Compiled record: pKi values for Carbonic anhydrase 1 (Homo sapiens) across several sources.
Keep in mind that pKi stands for -log10 of concentration in molar terms.

> print(dat)
                                   compound                      subject.of.test  measured.attribute  result.number
1  CCN(C(=O)CN(C)C(=N)N)C1CC(C)S(=O)(=O)c2sc(S(N)(=O)=O)cc21 (stereo not drawn)  Carbonic anhydrase 1 (Homo sapiens)                 pKi           7.12

Prompt: Look up pKi of NCCCC(=O)Nc1ccc(S(N)(=O)=O)cc1 and report it.
Response: 4.82

Prompt: Look up pKi of COc1ccc(N/N=C(\Cl)C(=O)Nc2ccc(S(N)(=O)=O)cc2)cc1 and report it.
Response: 7.06

----------
Compiled record: Ki values for Carbonic anhydrase 1 (Homo sapiens) across several sources.

> print(dat)
                                   compound                      subject.of.test    result
1  CCn1cc(S(N)(=O)=O)c2cc(NC(=O)c3ccnc(Br)c3)ccc21  Carbonic anhydrase 1 (Homo sapiens)  > 100 µM
2               COC(=O)C1=Cc2ccccc2OC(=O)C1  Carbonic anhydrase 1 (Homo sapiens)  > 100 µM

Proceed to the following item.
Prompt: Look up Ki of COc1cc(C=O)ccc1OCc1cn(CCCOc2ccc3ccc(=O)oc3c2)nn1 and report it.
Response: > 10 µM

----------
Compiled record: Ki values for Carbonic anhydrase 1 (Homo sapiens, UniProt P00915) across several sources.

Examples from the recorded data:
> print(dat)
                         compound.structure    result
1     COC(=O)C1=Cc2cc(C(C)(C)C)ccc2OC(=O)C1  > 100 µM
2     Cc1c(O)ccc2c(-c3cccc(Cl)c3)cc(=O)oc12   > 10 µM
3  CCOc1ccc(S(=O)(=O)NCCO)cc1-c1nnc2c(n1)c(C)nn2C   > 10 µM
4                   O=C1NS(=O)(=O)c2ccccc21   > 20 µM

Prompt: # return Ki for O=Cc1ccc(OCc2cn(CCCOc3ccc4ccc(=O)oc4c3)nn2)cc1 , test system: Carbonic anhydrase 1 (Homo sapiens, UniProt P00915)
Response: > 10 µM

Prompt: # return Ki for CC(C)(C)N1C(=O)C=C(c2ccccc2)S1(=O)=O , test system: Carbonic anhydrase 1 (Homo sapiens, UniProt P00915)
Response: > 10 µM

Prompt: # return Ki for O=c1cc(-c2ccc([N+](=O)[O-])cc2)c2ccc(O)cc2o1 , test system: Carbonic anhydrase 1 (Homo sapiens, UniProt P00915)
Response: > 10 µM

Prompt: # return Ki for COC(=O)C1=Cc2cc(OC)ccc2OC(=O)C1 , test system: Carbonic anhydrase 1 (Homo sapiens, UniProt P00915)
Response: > 100 µM

----------
pKi: −log10 of the molar value.
Compiled record: pKi values for Carbonic anhydrase 1 (Homo sapiens) across several sources.
Where pKi equals or exceeds 6, the correct label is Criterion met; where it does not, the label is Criterion not met.

Prompt: Reported pKi reaches at least 6 for OB(O)c1ccccc1 ?
Response: Criterion not met

Prompt: Reported pKi reaches at least 6 for NS(=O)(=O)c1ccc(-n2ncc(N3CCOCC3)c(Cl)c2=O)cc1 ?
Response: Criterion met

Prompt: Reported pKi reaches at least 6 for COC(=O)CCCNC(=O)Nc1cccc(S(N)(=O)=O)c1 ?
Response: Criterion not met

Prompt: Reported pKi reaches at least 6 for NS(=O)(=O)c1ccc2nc(NC(=O)CSC(=S)N3CCN(c4ccccc4)CC3)sc2c1 ?
Response: Criterion not met

Prompt: Reported pKi reaches at least 6 for Nc1nc(-c2ccc(NC(=O)c3ccc(S(N)(=O)=O)cc3)cc2)cn2c(=O)n(-c3ccccc3)nc12 ?
Response: Criterion not met

Prompt: Reported pKi reaches at least 6 for NS(=O)(=O)c1ccc(NC(=O)/C(Cl)=N/Nc2ccc(F)cc2)cc1 ?
Response: Criterion met

Prompt: Reported pKi reaches at least 6 for NCC(=O)Nc1nnc(S(N)(=O)=O)s1 ?
Response: Criterion met

Prompt: Reported pKi reaches at least 6 for Cc1cc(C)[n+](CC(=O)Nc2ccc(S(=O)(=O)Nc3nnc(S(N)(=O)=O)s3)cc2)c(C)c1 ?
Response: Criterion met

Prompt: Reported pKi reaches at least 6 for NS(=O)(=O)c1ccc(CNC(=O)CN(CCOCCOCCN(CC(=O)O)CC(=O)O)CC(=O)O)cc1 ?
Response: Criterion met

Prompt: Reported pKi reaches at least 6 for O=S1(=O)N=C(OCc2cccc(Br)c2)c2ccccc21 ?
Response: Criterion not met

----------
Compiled record: Ki values for Carbonic anhydrase 1 (Homo sapiens) across several sources.

Examples from the recorded data:
> print(dat)
                                   compound   result
1  CC1(C)OB(c2ccc(C(=O)Nc3ccc(S(N)(=O)=O)cc3)cc2)OC1(C)C  0.07 µM
2  CCOC1Oc2ccccc2C(=O)/C1=C/Nc1ccc(S(=O)(=O)Nc2nccs2)cc1 (centres undefined)  > 10 µM
3  Cc1nn(-c2ccccc2)c2c1c(=O)oc1ccc(NCc3ccccc3)cc12  > 10 µM

Proceed to the following item.
Prompt: Look up Ki of COc1ccc(C(=O)CSc2nccc(Nc3ccc(S(=O)(=O)Nc4ccccn4)cc3)n2)cc1 and report it.
Response: > 100 µM

----------
Compiled record: pKi values for Carbonic anhydrase 1 (Homo sapiens, UniProt P00915) across several sources.
Keep in mind that pKi stands for -log10 of concentration in molar terms.

Examples from the recorded data:
> print(dat)
                                   molecule  result.number
1  C[C@H](CCC(=O)Nc1ccc(S(N)(=O)=O)cc1Cl)[C@H]1CC[C@H]2[C@@H]3[C@@H](O)C[C@@H]4C[C@H](O)CC[C@]4(C)[C@H]3CC[C@]12C           6.72
2  Cc1cc(S(N)(=O)=O)c(S(=O)(=O)C(C)C(=O)NN)cc1Cl (configuration not stated)           4.85
3                              COS(N)(=O)=O           4.40
4  CN(CC(=O)Nc1nccc(Nc2ccc(S(N)(=O)=O)cc2)n1)C(=N)N           7.28
5  CCc1cc(-c2ccccc2)cc(CC)[n+]1CCc1ccc(S(N)(=O)=O)cc1           6.00

Prompt: Look up pKi of NS(=O)(=O)c1ccc(CCN(CCc2ccccc2)C(=O)CN(CCC(=O)O)CCc2ccccc2)cc1 and report it.
Response: 6.69

Prompt: Look up pKi of CCCCCCN(CCCCCC)CCC(=O)N(CCc1ccc(S(N)(=O)=O)cc1)Cc1ccco1 and report it.
Response: 6.66

Prompt: Look up pKi of CC(C)c1cc(-c2ccccc2)cc(C(C)C)[n+]1CC(=O)OCCc1ccc(S(N)(=O)=O)cc1 and report it.
Response: 5.78

Prompt: Look up pKi of NS(=O)(=O)c1ccccc1NCc1cc(=O)oc2cc(Cl)ccc12 and report it.
Response: 4.67

Prompt: Look up pKi of NS(=O)(=O)c1ccc(NC(=O)CNCC(=O)O)cc1 and report it.
Response: 4.67

Prompt: Look up pKi of NS(=O)(=O)c1nc2ccc(OC(=O)CNCC(=O)O)cc2s1 and report it.
Response: 7.30
